Test system: HepG2 cells
method_notes: HepG2 cell viability under serum-free conditions (MTS)
Type: cell-based
experimental_conditions: Homo sapiens, HepG2, 72 h; 5 μM, 3 days, DMEM without FBS; read-out: Average Viability (% Inhibition, n = 3)

- compound: "CN1CCN(c2cc(-c3nc(-c4ccc(NS(=O)(=O)C(F)(F)F)cc4Cl)cs3)ccn2)CC1 [Compound 76]"
  unit_spec: "%"
  cytotoxicity at 5 µM: 3
- compound: "O=S(=O)(Nc1ccc(-c2csc(-c3ccnc4[nH]ccc34)n2)c(Cl)c1)C(F)(F)F [Compound 87]"
  unit_spec: "%"
  cytotoxicity at 5 µM: 9
- compound: "O=S(=O)(Nc1ccc(-c2csc(-c3ccnc(Cl)c3)n2)c(Cl)c1)C(F)(F)F [Compound 95]"
  unit_spec: "%"
  cytotoxicity at 5 µM: 86
- compound: "O=S(=O)(Nc1ccc(-c2csc(-c3ccnc(NC4CCCC4)c3)n2)c(Cl)c1)C(F)(F)F [Compound 92]"
  unit_spec: "%"
  cytotoxicity at 5 µM: 94

---

method_notes: PK parameters for representative compounds (i.v. and p.o.), Table 4
experimental_conditions: in vivo, po; p.o. @ 10 mg/kg
quantity: Cmax (µM)

- compound: "CC(C)(C)c1cc(-c2nc(-c3ccc(NS(=O)(=O)C(F)(F)F)cc3Cl)cs2)ccn1 [Compound 5]"
  val: 20.3

---

method_notes: PK parameters for representative compounds (i.v. and p.o.), Table 4
experimental_conditions: in vivo, po; p.o. @ 10 mg/kg

- compound: "CC(C)(C)c1cc(-c2nc(-c3ccc(NS(=O)(=O)C(F)(F)F)cc3Cl)cs2)ccn1 [Compound 5]"
  unit_spec: "h"
  Tmax: 1

---

method_notes: PK parameters for representative compounds (i.v. and p.o.), Table 4
experimental_conditions: in vivo, po; p.o. @ 10 mg/kg; read-out: Terminal t1/2 (converted)

- compound: "CC(C)(C)c1cc(-c2nc(-c3ccc(NS(=O)(=O)C(F)(F)F)cc3Cl)cs2)ccn1 [Compound 5]"
  unit_spec: "h"
  half-life: 6.96

---

Tested on: HepG2 cells
method_notes: HepG2 cell viability under serum-free conditions (MTS)
Format: cell-based
experimental_conditions: Homo sapiens, HepG2; serum-free; read-out: IC50 for decreased viability of HepG2 cells
quantity: IC50

- input_smiles: "CC(C)Cc1cc(-c2nc(-c3ccc(NS(=O)(=O)C(F)(F)F)cc3Cl)cs2)ccn1"
  quantity: "IC50"
  val: "2100 nM"

---

Tested on: HepG2 cells
method_notes: HepG2 cell viability under serum-free conditions (MTS)
Format: cell-based
experimental_conditions: Homo sapiens, HepG2, 72 h; 20 μM, 3 days, DMEM without FBS; read-out: Average Viability (% Inhibition, n = 3)

- input_smiles: "Nc1cc(-c2nc(-c3ccc(NS(=O)(=O)C(F)(F)F)cc3Cl)cs2)ccn1"
  cytotoxicity at 20 µM: "43%"
- input_smiles: "CCCc1cc(-c2nc(-c3ccc(NS(=O)(=O)C(F)(F)F)cc3Cl)cs2)ccn1"
  cytotoxicity at 20 µM: "94.4%"
- input_smiles: "COc1cc(-c2csc(-c3ccnc(C(C)(C)C)c3)n2)ccc1NS(=O)(=O)C(F)(F)F"
  cytotoxicity at 20 µM: "99.8%"
- input_smiles: "O=S(=O)(Nc1ccc(-c2csc(-c3ccnc(CCC(F)(F)F)c3)n2)c(Cl)c1)C(F)(F)F"
  cytotoxicity at 20 µM: "100%"
